- measurement.target: CD28 (Homo sapiens, UniProt P10747)
- protocol.details: Jurkat/IL2 + CHO/OKT3 +/- PD-L1 reporter assay: PD-L1-dependent CD28 costimulation
- Format: cell-based
- Parameters: host or cells: Jurkat cells expressing an IL-2-luciferase reporter
- protocol.conditions: Table E13; Jurkat/IL2 + CHO/OKT3/PD-L1; 5.0 nM
- Description: Jurkat cells were then plated at 50 μL/well for a total of 100,000 cells per well. To each well, 25 μL of test protein was added to the Jurkat cells. […] The Jurkat cells with test or control proteins were incubated for 15 minutes at room temperature. […] Luminescence was measured with a 1 second per well integration time using a BioTek Cytation luminometer, and a relative luminescence value (RLU) was determined for each test sample.
I would appreciate it if you labelled entries t when Relative Luciferase Units (RLU), CD80 Cone 5.0 nM is 1000 RLU or higher, otherwise f.

[
  {
    "molecule": "H18Y/V22D/E35D/M47V/N48K/V68M (protein, UniProt P33681 35-288, looked up, variant H18Y V22D E35D M47V N48K V68M) T-lymphocyte activation …: VIHVTKEVKEVATLSCGYNVSDEELAQTRIYWQKDKKMVLTMMSGDVKIWPEYKNRTIFDITNNLSIMILALRPSDEGTYECVVLKYEKDAFKREHLAEVTLSVKADFPTPSISDFEIPTSNIRRIICSTSGGFPEPHLSWLENGEELNAINTTVSQDPETELYAVSSKLDFNMTTNHSFMCLIKYGHLRVNQTFNWNTTKQEHFPDNLLPSWAITLISVNGIFVICCLTYCFAPRCRERRRNERLRRESVRPV",
    "class.assignment": "t"
  },
  {
    "molecule": "T13R/Q33R/E35D/M47L/V68M/L85M (protein, CD80 v382 ECD) VIHVTKEVKEVARLSCGHNVSVEELAQTRIYWRKDKKMVLTMMSGDLNIWPEYKNRTIFDITNNLSIMILALRPSDEGTYECVVMKYEKDAFKREHLAEVTLSVKADFPTPSISDFETPTSNIRRIICSTSGGFPEPHLSWLENGEELNAINTTVSQDPETELYAVSSKLDFNMTTNHSFMCLIKYGHLRVNQTFNWNTTKQEHFPDN",
    "class.assignment": "t"
  },
  {
    "molecule": "H18Y/E35D/M38I/M47L/V68M/L85M (protein, UniProt P33681 35-288, looked up, variant H18Y E35D M38I M47L V68M L85M) T-lymphocyte activation …: VIHVTKEVKEVATLSCGYNVSVEELAQTRIYWQKDKKIVLTMMSGDLNIWPEYKNRTIFDITNNLSIMILALRPSDEGTYECVVMKYEKDAFKREHLAEVTLSVKADFPTPSISDFEIPTSNIRRIICSTSGGFPEPHLSWLENGEELNAINTTVSQDPETELYAVSSKLDFNMTTNHSFMCLIKYGHLRVNQTFNWNTTKQEHFPDNLLPSWAITLISVNGIFVICCLTYCFAPRCRERRRNERLRRESVRPV",
    "class.assignment": "f"
  },
  {
    "molecule": "H18Y/E35D/V68M/T79M/L85M (protein, UniProt P33681 35-288, looked up, variant H18Y E35D V68M T79M L85M) T-lymphocyte activation …: VIHVTKEVKEVATLSCGYNVSVEELAQTRIYWQKDKKMVLTMMSGDMNIWPEYKNRTIFDITNNLSIMILALRPSDEGMYECVVMKYEKDAFKREHLAEVTLSVKADFPTPSISDFEIPTSNIRRIICSTSGGFPEPHLSWLENGEELNAINTTVSQDPETELYAVSSKLDFNMTTNHSFMCLIKYGHLRVNQTFNWNTTKQEHFPDNLLPSWAITLISVNGIFVICCLTYCFAPRCRERRRNERLRRESVRPV",
    "class.assignment": "t"
  },
  {
    "molecule": "T13R/Q33L/E35D/M47V/T62S/V68M/L85M (protein, UniProt P33681 35-288, looked up, variant T13R Q33L E35D M47V T62S V68M L85M) T-lymphocyte activation …: VIHVTKEVKEVARLSCGHNVSVEELAQTRIYWLKDKKMVLTMMSGDVNIWPEYKNRTIFDISNNLSIMILALRPSDEGTYECVVMKYEKDAFKREHLAEVTLSVKADFPTPSISDFEIPTSNIRRIICSTSGGFPEPHLSWLENGEELNAINTTVSQDPETELYAVSSKLDFNMTTNHSFMCLIKYGHLRVNQTFNWNTTKQEHFPDNLLPSWAITLISVNGIFVICCLTYCFAPRCRERRRNERLRRESVRPV",
    "class.assignment": "f"
  },
  {
    "molecule": "T13R/Q33R/E35D/M38I/M47L/V68M/L85M (protein, UniProt P33681 35-288, looked up, variant T13R Q33R E35D M38I M47L V68M L85M) T-lymphocyte activation …: VIHVTKEVKEVARLSCGHNVSVEELAQTRIYWRKDKKIVLTMMSGDLNIWPEYKNRTIFDITNNLSIMILALRPSDEGTYECVVMKYEKDAFKREHLAEVTLSVKADFPTPSISDFEIPTSNIRRIICSTSGGFPEPHLSWLENGEELNAINTTVSQDPETELYAVSSKLDFNMTTNHSFMCLIKYGHLRVNQTFNWNTTKQEHFPDNLLPSWAITLISVNGIFVICCLTYCFAPRCRERRRNERLRRESVRPV",
    "class.assignment": "f"
  },
  {
    "molecule": "E35D/M47V/N48K/V68M/L85M (protein, UniProt P33681 35-288, looked up, variant E35D M47V N48K V68M L85M) T-lymphocyte activation …: VIHVTKEVKEVATLSCGHNVSVEELAQTRIYWQKDKKMVLTMMSGDVKIWPEYKNRTIFDITNNLSIMILALRPSDEGTYECVVMKYEKDAFKREHLAEVTLSVKADFPTPSISDFEIPTSNIRRIICSTSGGFPEPHLSWLENGEELNAINTTVSQDPETELYAVSSKLDFNMTTNHSFMCLIKYGHLRVNQTFNWNTTKQEHFPDNLLPSWAITLISVNGIFVICCLTYCFAPRCRERRRNERLRRESVRPV",
    "class.assignment": "t"
  },
  {
    "molecule": "E35D/D46E/M47L/V68M/T79M/L85M (protein, UniProt P33681 35-288, looked up, variant E35D D46E M47L V68M T79M L85M) T-lymphocyte activation …: VIHVTKEVKEVATLSCGHNVSVEELAQTRIYWQKDKKMVLTMMSGELNIWPEYKNRTIFDITNNLSIMILALRPSDEGMYECVVMKYEKDAFKREHLAEVTLSVKADFPTPSISDFEIPTSNIRRIICSTSGGFPEPHLSWLENGEELNAINTTVSQDPETELYAVSSKLDFNMTTNHSFMCLIKYGHLRVNQTFNWNTTKQEHFPDNLLPSWAITLISVNGIFVICCLTYCFAPRCRERRRNERLRRESVRPV",
    "class.assignment": "t"
  }
]
